Attribute: IC50
target: human PAD4 (Homo sapiens, UniProt Q9UM07); construct: human PAD4 (NM_012387), A2-P663, was PCR amplified; His-SUMO (N, cleaved yes); assay: In vitro PAD4 BAEE biochemical assay; conditions: BAEE substrate 3 mM, 5 nM PAD4, 2 mM calcium chloride; geometric mean of multiple experiments
Sequence (Q9UM07 2-663): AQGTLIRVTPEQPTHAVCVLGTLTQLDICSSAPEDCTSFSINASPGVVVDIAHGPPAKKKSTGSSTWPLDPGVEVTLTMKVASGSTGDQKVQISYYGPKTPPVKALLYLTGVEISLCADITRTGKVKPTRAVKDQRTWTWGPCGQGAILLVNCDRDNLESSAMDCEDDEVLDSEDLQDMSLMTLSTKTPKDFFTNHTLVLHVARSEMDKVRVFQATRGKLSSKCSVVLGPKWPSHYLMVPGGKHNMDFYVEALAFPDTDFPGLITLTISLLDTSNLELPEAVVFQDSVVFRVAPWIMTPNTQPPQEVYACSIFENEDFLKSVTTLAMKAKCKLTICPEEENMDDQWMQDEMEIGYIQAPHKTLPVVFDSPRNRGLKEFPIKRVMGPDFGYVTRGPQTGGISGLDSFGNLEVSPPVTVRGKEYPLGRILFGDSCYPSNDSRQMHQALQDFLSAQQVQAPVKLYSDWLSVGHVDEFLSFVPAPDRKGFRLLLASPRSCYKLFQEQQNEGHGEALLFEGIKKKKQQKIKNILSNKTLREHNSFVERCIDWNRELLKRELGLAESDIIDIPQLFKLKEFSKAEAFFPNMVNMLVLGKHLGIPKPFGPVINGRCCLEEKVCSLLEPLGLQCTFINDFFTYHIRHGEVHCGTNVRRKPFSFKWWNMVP
Value expressed in nM; do not type the unit.

compound: COc1cc(C(=O)N2C[C@H](N)[C@@H]3CC[C@H]2C3)cc2nc(-c3cc4ccc5nc4n3C[C@H]3C[C@H]3CC[C@]3(F)C[C@H]3C(=O)N[C@@H]5C)n(C3CC3)c12 [Example 772]
IC50, nM: 6

The value of IC50 measured for the compound C[C@H]1NC(=O)[C@H]2[C@H](CCCCCn3c(-c4nc5cc(C(=O)N[C@H]6CNCC[C@@H]6F)c(F)cc5n4C)cc4ccc1nc43)C2(F)F [Example 383] turned out to be 28

The value of IC50 measured for the compound COc1cc(C(=O)N2CC[C@@H](OC)[C@@H](N)C2)cc2nc(-c3cc4ccc5nc4n3CCCCCCC(C)(C)C(=O)NC5C(F)(F)F)n(C)c12 (stereo partly drawn) [Example 785] turned out to be 954

====

molecular target: human PAD4 (Homo sapiens); construct: human PAD4 (NM_012387), A2-P663, was PCR amplified; His-SUMO (N, cleaved yes); assay: In vitro PAD4 BAEE biochemical assay; conditions: BAEE substrate 3 mM, 5 nM PAD4, 2 mM calcium chloride; geometric mean of multiple experiments
pIC50: −log10 of the molar value.
Outcome: True for pIC50 of at least 7; False for anything lower.

Answered cases to consult:
compound: COc1cc(C(=O)N2CCC[C@@H](N)C2)cc2nc(-c3cc4ccc5nc4n3CCOCCOCCOC5C)n(C)c12 (stereo partly shown) [Example 298]
assay target: human PAD4 (Homo sapiens)
label: False

compound: COc1cc(C(=O)N2C[C@H](N)[C@@H]3CC[C@H]2C3)cc2nc(-c3cc4ccc5nc4n3CCCCCc3ccccc3C(=O)N[C@@H]5C)n(C3CC3)c12 [Example 673]
assay target: human PAD4 (Homo sapiens)
label: True

compound: C[C@H]1NC(=O)[C@@H]2C[C@H]2C/C=C/CCn2c(-c3nc4cc(C(=O)N[C@H]5CNCC[C@@H]5F)cc(C(F)(F)F)c4n3C)cc3ccc1nc32 [Example 561]
assay target: human PAD4 (Homo sapiens)
label: False

compound: COc1cc(C(=O)N2CC[C@H]3CCN[C@H]3C2)cc2nc(-c3cc4ccc5nc4n3CCCCC[C@@H]3C[C@H]3C(=O)N[C@@H]5C)n(C)c12 [Example 531]
assay target: human PAD4 (Homo sapiens)
label: True

compound: COc1cc(C(=O)N2CC3(CCCNC3)C2)cc2nc(-c3cc4ccc5nc4n3CCCCC[C@@H]3CC3C(=O)N[C@@H]5C)n(C)c12 (stereo partly shown) [Example 508]
assay target: human PAD4 (Homo sapiens)
label: True

compound: COc1cc(C(=O)N2CC[C@@H](OC)[C@@H](N)C2)cc2nc(-c3cc4ccc5nc4n3CCCC(F)(F)C[C@H]3C[C@H]3C(=O)N[C@@H]5C)n(C)c12 [Example 859]
assay target: human PAD4 (Homo sapiens)
label: True

compound: COc1cc(C(=O)N2CCC[C@@H](N)C2)cc2nc(-c3cc4ccc5nc4n3C/C=C(/F)COCCC(=O)N[C@@H]5C)n(C)c12 [Example 620]
assay target: human PAD4 (Homo sapiens)
label: True

compound: CO[C@@H]1CCN(C(=O)c2cc(F)c3c(c2)nc(-c2cc4ccc5nc4n2CCCCCC2C[C@H]2C(=O)N[C@@H]5C)n3C2CC2)C[C@@H]1N (stereo partly shown) [Example 579]
assay target: human PAD4 (Homo sapiens)
label: True

Assess whether reported pIC50 for COc1cc(C(=O)N2[C@H]3CC[C@@H]2[C@H](N)C3)cc2nc(-c3cc4ccc5nc4n3CCCCn3nccc3C(=O)N[C@@H]5C)c(C)n12 [Example 34] sits at 7 or higher. True

====

Attribute: pIC50
biological target: human PAD4 (Homo sapiens); construct: human PAD4 (NM_012387), A2-P663, was PCR amplified; His-SUMO (N, cleaved yes); assay: In vitro PAD4 BAEE biochemical assay; details: BAEE substrate 3 mM, 5 nM PAD4, 2 mM calcium chloride; geometric mean of multiple experiments
pIC50 field: float, defined as -log10 of concentration (mol/L).

Worked examples, 3 compounds total:
compound: COc1cc(C(=O)N2[C@H]3CC[C@@H]2[C@H](N)C3)cc2nc(-c3cc4ccc5nc4n3CCCCC[C@H]3C[C@@H]3C(=O)N[C@@H]5C)n(C)c12 (single isomer, unassigned)
measured property: pIC50
observed value: 7.24
--
compound: COc1cc(C(=O)N[C@H]2CNCC[C@@H]2F)cc2nc(-c3cc4ccc5nc4n3CCCCCc3cccc(F)c3C(=O)N[C@@H]5C)n(C)c12
measured property: pIC50
observed value: 7.22
--
compound: C[C@H]1NC(=O)[C@@H]2C[C@H]2CCCC(F)(F)Cn2c(-c3nc4cc(C(=O)N5C[C@H](N)[C@@H]6CC[C@H]5C6)c(F)c(F)c4n3C3CC3)cc3ccc1nc32
measured property: pIC50
observed value: 7.26

The value of pIC50 measured for the compound COc1cc(C(=O)N2CC[C@H]3OCCN[C@H]3C2)cc2nc(-c3cc4ccc5nc4n3C[C@H]3C[C@H]3COCCC(=O)N[C@@H]5C)n(C)c12 (single isomer, unassigned) turned out to be 6.39

The value of pIC50 measured for the compound `COc1cc(C(=O)N2[C@H]3CC[C@@H]2[C@H](N)C3)cc2nc(-c3cc4ccc5nc4n3CCCCCCCCC(=O)N[C@@H]5C)n(C)c12` turned out to be 8.05

====

Attribute: pIC50
Biological target: human PAD4 (Homo sapiens)
Construct: human PAD4 (NM_012387), A2-P663, was PCR amplified; His-SUMO (N, cleaved yes)
Experiment: In vitro PAD4 BAEE biochemical assay
Conditions: BAEE substrate 3 mM, 5 nM PAD4, 2 mM calcium chloride; geometric mean of multiple experiments
Source text: In Vitro PAD4 BAEE Biochemical Assay The enzymatic activity of human PAD4 was monitored in a biochemical assay in the presence or absence of compounds using the small peptidyl arginine mimic BAEE (Na-Benzoyl-L-arginine ethyl ester hydrochloride) as substrate. PAD4 activity led to deimination of BAEE and release of ammonia. Levels of ammonia were monitored by using an amine coupling reaction and were indicative of PAD4 enzymatic activity. […]
pIC50 field: float, defined as -log10 of concentration (mol/L).

structure notation: COc1cc(C(=O)N2C[C@H](N)[C@@H]3CC[C@H]2C3)cc2nc(-c3cc4ccc5nc4n3CCCCCc3cc(Cl)ccc3C(=O)N[C@@H]5C)n(C)c12
pIC50: 7.23
//
structure notation: C[C@H]1NC(=O)c2ccc(Cl)nc2CCCCCn2c(-c3nc4cc(C(=O)N5C[C@H](N)[C@@H]6CC[C@H]5C6)cc(F)c4n3CC(F)F)cc3ccc1nc32
pIC50: 7.40
//
structure notation: C[C@H]1NC(=O)c2cnc(C(F)F)cc2CCCCCn2c(-c3nc4cc(C(=O)N5C[C@H](N)[C@@H]6CC[C@H]5C6)cc(F)c4n3C3CC3)cc3ccc1nc32
pIC50: 7.77
//
structure notation: COc1cc(C(=O)N[C@H]2CNCC[C@@H]2F)cc2nc(-c3cc4ccc5nc4n3CCCCCCC(F)(F)C(=O)N[C@@H]5C)n(C)c12
pIC50: 6.96

Kindly consider the entry below.
Summary line: `C[C@@H]1[C@H](N)CCCN1C(=O)c1cc(F)c2c(c1)nc(-c1cc3ccc4nc3n1CC(F)(F)CCC[C@@H]1C[C@H]1C(=O)N[C@@H]4C)n2[C@@H]1C[C@@H]1F` , human PAD4 (Homo sapiens), reported pIC50 = 8.00

====

Attribute: pIC50
target: human PAD4 (Homo sapiens, UniProt Q9UM07); construct: human PAD4 (NM_012387), A2-P663, was PCR amplified; His-SUMO (N, cleaved yes); assay: In vitro PAD4 BAEE biochemical assay; settings: BAEE substrate 3 mM, 5 nM PAD4, 2 mM calcium chloride; geometric mean of multiple experiments
pIC50 field: float, defined as -log10 of concentration (mol/L).

The value of pIC50 measured for the molecule `CCn1c(-c2cc3ccc4nc3n2CCCCC[C@]2(F)C[C@H]2C(=O)N[C@@H]4C)nc2cc(C(=O)N3C[C@H](N)[C@@H]4CC[C@H]3C4)cc(F)c21` turned out to be 7.55

The value of pIC50 measured for the molecule `COc1cc(C(=O)N2[C@H]3CC[C@@H]2[C@H](N)[C@H](O)C3)cc2nc(-c3cc4ccc5nc4n3CCCCCCC3(CC3)C(=O)N[C@@H]5C)n(C)c12` turned out to be 6.73

The value of pIC50 measured for the molecule `COc1cc(C(=O)N2CCC[C@@H](N)C2)cc2nc(-c3cc4ccc5nc4n3CC(C)(C)CCCCCC(=O)N[C@@H]5C)n(C)c12` turned out to be 7.01
